- System: human monocyte-derived macrophages (polarized)
- experiment_notes: cell shape (eccentricity) Z-score vs DMSO control; higher = more elongated, M2-like morphology
- measurement_context: 5 µM; 24 h; macrophage state: M1-polarized (IFNg + TNFa), cytokines present during treatment
Catalogue of cell shape (Z-score) values
Note: the reply should be a number with no unit written.

In the examples that follow, each entry is paired with its recorded cell shape (Z-score).
molecule	cell shape (Z-score)
C[C@]1(CO)CN(c2cc(C(=O)Nc3ccc4c(c3)-c3c(c(C(N)=O)nn3-c3ccc(F)cc3)CC4)c(Cl)cn2)C[C@@]1(C)CO	-7.03
CC(C)C[C@H](NC(=O)CNC(=O)c1cc(Cl)ccc1Cl)B(O)O	0.365
[O-][NH2+]c1ccc(O)c2ncccc12	-6.06
COc1cc2ncnc(Nc3ccc(F)c(Cl)c3)c2cc1OCCCN1CCOCC1	-0.66
O=C(Cc1ccc(-c2ccc(OCCN3CCOCC3)cc2)cn1)NCc1ccccc1	9.67

Incoming: // query cell shape (Z-score) value for entry Cc1ccc(C(=O)Nc2ccc(S(=O)(=O)O)c3cc(S(=O)(=O)O)cc(S(=O)(=O)O)c23)cc1NC(=O)c1cccc(NC(=O)Nc2cccc(C(=O)Nc3cc(C(=O)Nc4ccc(S(=O)(=O)O)c5cc(S(=O)(=O)O)cc(S(=O)(=O)O)c45)ccc3C)c2)c1
Outgoing: 6.07

Incoming: // query cell shape (Z-score) value for entry COc1ccc(-c2cc(=O)c3c(O)cc(O)cc3o2)cc1O
Outgoing: 3.77

Incoming: // query cell shape (Z-score) value for entry COc1ccc(-c2cc(=O)c3c(O)cc(OC)c(OC)c3o2)c(OC)c1
Outgoing: -4.83

Incoming: // query cell shape (Z-score) value for entry CCCCCc1c2c(cc(O)c1C(=O)O)OC(=O)c1c(cc(OC)cc1C(=O)CCCC)O2
Outgoing: 2.35

---

- System: human monocyte-derived macrophages (polarized)
- experiment_notes: cell shape (eccentricity) Z-score vs DMSO control; higher = more elongated, M2-like morphology
- measurement_context: 5 µM; 24 h; macrophage state: M1-polarized (IFNg + TNFa), cytokines present during treatment
Everything with cell shape (Z-score) lower than 2 is NO; everything else, including exactly 2, is YES.

Incoming: Is cell shape (Z-score) at least 2? Consider O=C(Nc1ccc(OC(F)(F)F)cc1)c1sccc1NCc1ccnc2ccccc12
Outgoing: YES

Incoming: Is cell shape (Z-score) at least 2? Consider N#CCNC(=O)c1ccc(-c2ccnc(Nc3ccc(N4CCOCC4)cc3)n2)cc1
Outgoing: YES

Incoming: Is cell shape (Z-score) at least 2? Consider CCCCCCN(CCCCCC)C(=O)Cc1c(-c2ccc(F)cc2)[nH]c2ccccc12
Outgoing: NO

Incoming: Is cell shape (Z-score) at least 2? Consider CC(C)c1ccccc1Cc1cc(C(=O)Nc2ccc(S(=O)(=O)c3ccccc3C(C)(C)C)cc2)c(O)c(O)c1O
Outgoing: NO

Incoming: Is cell shape (Z-score) at least 2? Consider C/C=C/c1ccc2c(c1)O[C@@H](CN(C)C(=O)c1ccccc1)[C@@H](C)CN([C@@H](C)CO)S2(=O)=O
Outgoing: NO

Incoming: Is cell shape (Z-score) at least 2? Consider Cc1cc(N2CCOCC2)cc2[nH]c(-c3c(NC[C@@H](O)c4cccc(Cl)c4)cc[nH]c3=O)nc12
Outgoing: YES

---

- System: human monocyte-derived macrophages (polarized)
- experiment_notes: cell shape (eccentricity) Z-score vs DMSO control; higher = more elongated, M2-like morphology
- measurement_context: 5 µM; 24 h; macrophage state: M1-polarized (IFNg + TNFa), cytokines present during treatment
value_type: cell shape (Z-score)
Note: the reply should be a number with no unit written.

compound	value_type	numeric_readout
CN1CCN(c2nc(C3=C(c4c[nH]c5ccccc45)C(=O)NC3=O)c3ccccc3n2)CC1	cell shape (Z-score)	-0.285
COc1c(OC)c(O)c2c(=O)c(O)c(-c3ccccc3)oc2c1OC	cell shape (Z-score)	5.45
O=C(O)C[C@H](O)C[C@H](O)/C=C/c1c(C2CC2)nc2ccccc2c1-c1ccc(F)cc1	cell shape (Z-score)	5.72

Incoming: // query cell shape (Z-score) value for entry C=C[C@@]1(C)CC(=O)[C@]2(O)[C@@]3(C)[C@@H](O)CCC(C)(C)[C@@H]3[C@H](O)[C@H](OC(C)=O)[C@@]2(C)O1
Outgoing: -1.28

Incoming: // query cell shape (Z-score) value for entry Oc1cccc(O)c1
Outgoing: -3.74

Incoming: // query cell shape (Z-score) value for entry COc1ccc(N(C(=O)c2ccccc2)S(=O)(=O)c2cc(OC)ccc2OC)cc1
Outgoing: -2.07

Incoming: // query cell shape (Z-score) value for entry O=C(NCCN1CCCCC1)c1ccc(I)cc1
Outgoing: 6.46

Incoming: // query cell shape (Z-score) value for entry COc1cccc2c1C(=O)c1c(O)c3c(c(O)c1C2=O)C[C@@](O)(C(C)=O)C[C@@H]3O[C@H]1C[C@H](N)[C@H](O)[C@H](C)O1
Outgoing: 8.83

Incoming: // query cell shape (Z-score) value for entry CC1CC(=O)c2c(ccc3c2C(=O)c2cccc(O)c2C3O)C1 (centres undefined)
Outgoing: -2.52

---

- Test system: human monocyte-derived macrophages (polarized)
- experiment_notes: cell shape (eccentricity) Z-score vs DMSO control; higher = more elongated, M2-like morphology
- measurement_context: 5 µM; 24 h; macrophage state: M1-polarized (IFNg + TNFa), cytokines present during treatment
Everything with cell shape (Z-score) lower than 0.4 is Not fulfilled; everything else, including exactly 0.4, is Fulfilled.

compound	assigned_class
CCC1(C)CC(=O)NC1=O (configuration not stated)	Not fulfilled

Incoming: Is cell shape (Z-score) at least 0.4? Consider Cc1onc(-c2ccccc2)c1-c1ccc(S(N)(=O)=O)cc1
Outgoing: Fulfilled

Incoming: Is cell shape (Z-score) at least 0.4? Consider CCN(CC)CCOc1ccc2c(c1)C(=O)c1cc(OCCN(CC)CC)ccc1-2
Outgoing: Not fulfilled

Incoming: Is cell shape (Z-score) at least 0.4? Consider CCCCOC(=O)c1ccc(N)cc1
Outgoing: Not fulfilled

---

- Test system: human monocyte-derived macrophages (polarized)
- experiment_notes: cell shape (eccentricity) Z-score vs DMSO control; higher = more elongated, M2-like morphology
- measurement_context: 5 µM; 24 h; macrophage state: M1-polarized (IFNg + TNFa), cytokines present during treatment
value_type: cell shape (Z-score)

molecule	experimental_system	cell shape (Z-score)
COc1cccc(NC(=O)/C=C/c2ccc(Cl)cc2)c1	human monocyte-derived macrophages (polarized)	4.58
O=C(O)c1ccc2c(c1)nc(Nc1cccc(Cl)c1)c1ccncc12	human monocyte-derived macrophages (polarized)	9.47
CC[C@H](Nc1ncnc2[nH]cnc12)c1nc2cccc(F)c2c(=O)n1-c1ccccc1	human monocyte-derived macrophages (polarized)	-16.8

Okay, next one:
Incoming: API: value(readout=cell shape (Z-score), system=human monocyte-derived macrophages (polarized)) for record Nc1nc(Nc2ccc3c(c2)CCC(N2CCCC2)CC3)nn1-c1cc2c(nn1)-c1ccccc1CCC2 (centres undefined)
Outgoing: -4.94

---

Catalogue of cell shape (Z-score) values
- System: human monocyte-derived macrophages (polarized)
- experiment_notes: cell shape (eccentricity) Z-score vs DMSO control; higher = more elongated, M2-like morphology
- measurement_context: 5 µM; 24 h; macrophage state: M1-polarized (IFNg + TNFa), cytokines present during treatment

In the examples that follow, each entry is paired with its recorded cell shape (Z-score).
smiles_entry	value_type	result
Cc1ccc(S(=O)(=O)OCC(=O)Nc2ccc(C(=O)O)c(O)c2)cc1	cell shape (Z-score)	-2.63
COc1cc(Nc2ncc(F)c(Nc3ccc4c(n3)NC(=O)C(C)(C)O4)n2)cc(OC)c1OC	cell shape (Z-score)	-14.9

Okay, next one:
Incoming: API: value(readout=cell shape (Z-score), system=human monocyte-derived macrophages (polarized)) for record Cc1nc(Nc2ncc(C(=O)Nc3c(C)cccc3Cl)s2)cc(N2CCN(CCO)CC2)n1
Outgoing: 19.8

---

- Tested on: human monocyte-derived macrophages (polarized)
- experiment_notes: cell shape (eccentricity) Z-score vs DMSO control; higher = more elongated, M2-like morphology
- measurement_context: 5 µM; 24 h; macrophage state: M1-polarized (IFNg + TNFa), cytokines present during treatment
Catalogue of cell shape (Z-score) values
Note: the reply should be a number with no unit written.

In the examples that follow, each entry is paired with its recorded cell shape (Z-score).
smiles_entry	numeric_readout
COc1cccc2c1C(=O)c1c(O)c3c(c(O)c1C2=O)C[C@@](O)(C(=O)CO)C[C@@H]3O[C@H]1C[C@H](N)[C@H](O)[C@H](C)O1	22
Cn1cc(C2=C(c3cn(CCCSC(=N)N)c4ccccc34)C(=O)NC2=O)c2ccccc21	17.6
COc1cc2ncn(-c3cc(OCc4ccccc4C(F)(F)F)c(C(N)=O)s3)c2cc1OC	13.5
CCOc1cc2ncc(C#N)c(Nc3ccc(OCc4ccccn4)c(Cl)c3)c2cc1NC(=O)/C=C/CN(C)C	0.0624
c1ccc(-c2nnc(N3CCOCC3)nc2-c2ccccc2)cc1	-1.34
c1cc(-c2cnn3cc(-c4ccc(OCCN5CCCCC5)cc4)cnc23)ccn1	1.96
C[C@H]1[C@H](NC(=O)/C(=N\OC(C)(C)C(=O)O)c2csc(N)n2)C(=O)N1S(=O)(=O)O	0.443

Incoming: // query cell shape (Z-score) value for entry CS(=O)(=O)c1cccc(CNc2nc(Nc3ccc4c(c3)CCC(=O)N4)ncc2C(F)(F)F)c1
Outgoing: -3.99
